Measurement target: Ras-related C3 botulinum toxin substrate 1 (Mus musculus)
Protocol details: wildtype Rac1 GTP binding inhibitors, SAR follow-up, biochemical, oxadiazole analogs, multiplex bead flow cytometry (AID 2027)
Assay endpoint: EC50 (nM)
Use nM as the unit, but write only the number.

Example entries begin here.
>>> print(df.to_string())
                                   molecule  unit_info  numeric_readout
0  Cc1cccc(-c2noc(CCC(=O)N3CCN(c4cc(C)ccc4C)CC3)n2)c1         nM             1220
1  Cc1ccc(C)c(N2CCN(C(=O)CCc3nc(-c4cccc(C(F)(F)F)c4)no3)CC2)c1 [KUC103380N]         nM             2500
2  Cc1ccc(C)c(N2CCN(C(=O)CCc3nc(-c4ccccc4Br)no3)CC2)c1         nM             1710
3  Cc1ccc(C)c(N2CCN(C(=O)CCc3nc(-c4ccccc4Cl)no3)CC2)c1         nM             1190
4  COc1ccc(-c2noc(CCC(=O)N3CCN(c4ccccc4F)CC3)n2)cc1         nM             1110
5  Cc1ccc(C)c(N2CCN(C(=O)CCc3nc(-c4ccc(Br)cc4)no3)CC2)c1 [UNM-0000306072]         nM             2970

Kindly review the next molecule as well.
Can you look up the measured EC50 of `COc1cccc(-c2noc(CCC(=O)N3CCN(c4cc(C)ccc4C)CC3)n2)c1` for me? 6120
